# studyTarget: Laminin 421/521
# assayOverview: phage display, NGS count
Please respond with reported Count for every item in the list.
Form rule: numeric answer, no unit written next to it.

Provide measured Count value, entry: `AQRMNQA`
38

Provide measured Count value, entry: `GSPEKRT`
30

Provide measured Count value, entry: `CKSPIKGTC`
27

Provide measured Count value, entry: `SVQTPMWRSLVG`
28

Provide measured Count value, entry: `VVPSWPSVHRPP`
31

Provide measured Count value, entry: `QTRWDDGSYQIS`
49

Provide measured Count value, entry: `CGITQTTTC`
55

Provide measured Count value, entry: `LARSSIMAANNV`
42

Provide measured Count value, entry: `CSRAGLSAC`
30

Provide measured Count value, entry: `VIADQSKSAVAV`
27

Provide measured Count value, entry: `GKPDHRLVSLWR`
309

Provide measured Count value, entry: `HPAWADFFTMSS`
29

Provide measured Count value, entry: `YTPRNQL`
55

Provide measured Count value, entry: `KFADTKLTSLRY`
28

Provide measured Count value, entry: `RAQAHQV`
51

Provide measured Count value, entry: `SVESNSKLTMPR`
29
